tested on: Klebsiella oxytoca; experiment: Antibacterial activity against Klebsiella oxytoca assessed as growth inhibition after 18 to 22 hrs by broth microdilution method; format: functional
propertyName: MIC

smilesInput	valueMeasured
COc1ccc(-c2csc(N/N=C(\C)C3CCCCC3)n2)c(OC)c1	> 256 µg/mL
C/C(CC(C)C)=N\Nc1nc(-c2ccc(Cl)cc2Cl)cs1	> 256 µg/mL
CCC(CC)=NNc1nc(-c2ccc(Cl)cc2Cl)cs1	> 256 µg/mL
CCC/C(C)=N/Nc1nc(-c2ccc(Cl)cc2Cl)cs1	> 256 µg/mL
CCCCCC/C(C)=N/Nc1nc(-c2ccc(OC)cc2OC)cs1	> 256 µg/mL
CCCCC/C(C)=N/Nc1nc(-c2ccc(OC)cc2OC)cs1	> 256 µg/mL
CCC/C(C)=N/Nc1nc(-c2ccc(OC)cc2OC)cs1	> 256 µg/mL
COc1ccc(-c2csc(N/N=C(\C)CC(C)C)n2)cc1	> 256 µg/mL
CCCC/C(CC)=N/Nc1nc(-c2ccc(OC)cc2OC)cs1	> 256 µg/mL
C/C(=N\Nc1nc(-c2ccc(Cl)cc2Cl)cs1)C1CCCCC1	> 256 µg/mL
C=CCC/C(C)=N/Nc1nc(-c2ccc(OC)cc2OC)cs1	> 256 µg/mL
COc1ccc(-c2csc(N/N=C(\C)CC(C)C)n2)c(OC)c1	> 256 µg/mL
CCC/C(C)=N/Nc1nc(-c2ccc(OC)cc2)cs1	> 256 µg/mL
CCCCC/C(C)=N/Nc1nc(-c2ccc(Cl)cc2Cl)cs1	> 256 µg/mL
CCC(CC)=NNc1nc(-c2ccc(OC)cc2)cs1	> 256 µg/mL
COc1ccc(-c2csc(N/N=C(\C)C3CCCCC3)n2)cc1	> 256 µg/mL
C=CCC/C(C)=N/Nc1nc(-c2ccc(Cl)cc2Cl)cs1	> 256 µg/mL
CCCC/C(CC)=N/Nc1nc(-c2ccc(Cl)cc2Cl)cs1	> 256 µg/mL
CCCC/C(CC)=N/Nc1nc(-c2ccc(OC)cc2)cs1	> 256 µg/mL
COc1ccc(-c2csc(N/N=C3/C=CC(C)(C)CC3)n2)cc1	> 256 µg/mL
COc1ccc(-c2csc(NN=C(C)C)n2)c(OC)c1	> 256 µg/mL
CC/C(C)=N/Nc1nc(-c2ccc(OC)cc2)cs1	> 256 µg/mL
CCCCC/C(C)=N/Nc1nc(-c2ccc(C)cc2)cs1	> 256 µg/mL
Clc1ccc(-c2csc(NN=C3CCCCCCC3)n2)c(Cl)c1	> 256 µg/mL
COc1ccc(-c2csc(NN=C(C)C)n2)cc1	> 256 µg/mL
